Attribution: paper PMC10397247

- target desc: T1, APC4100-AA
- T1 chain: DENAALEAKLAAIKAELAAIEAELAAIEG
- measurement protocol: two-hybrid library CCmax;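 also: natural log of median RNA to DNA barcode read ratio; higher means stronger binding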
- measurement setup: mean of both orientations
Lab note: compare interaction score against -1. Equal or greater, write 1. Smaller, write -1.

binder | assigned label
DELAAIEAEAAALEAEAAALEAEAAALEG [APC222-AA] | -1
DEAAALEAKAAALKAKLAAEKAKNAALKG [APC2375-AA] | -1
DKAAALKAELAANEAELAANEAKLAAIKG [APC3881-AA] | -1
DEAAALEAELAANEAKLAAIKAKLAAIKG [APC2811-AA] | 1
DKAAALKAKAAALKAEAAALEAKAAALKG [APC3323-AA] | 1
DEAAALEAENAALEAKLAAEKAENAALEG [APC2474-AA] | -1
DEAAALEAKLAANKAELAANEAKLAAIKG [APC2981-AA] | -1
DEAAALEAKNAALKAKNAALKAELAAEEG [APC2556-AA] | -1
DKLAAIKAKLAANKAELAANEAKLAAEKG [APC1987-AA] | -1
